Provenance of the data: patent US10844044B2

I'd be grateful if you could share measured Ki for these entries.
# experimental_target: WDR5 (Homo sapiens (Human))
# protocol_text: TR-FRET binding assay (displacement of 10mer-Thr-FAM probe from WDR5)
# condition: read-out: Ki for Inhibition of WDR5 by TR-FRET assay; TR-FRET, 10mer-Thr-FAM probe, WDR5-His tag 2 nM, pH 7.0
Numeric only. Scale: nM

Ask | State its Ki: `Cc1cc([C@@H](NC(=O)c2cc(CN3CCOC3=N)cc(-c3ccc(F)cc3C#N)c2)C2CC2)ccc1F`
Reply | 0.21

Ask | Return Ki (reported value) for this molecule: `Cc1cc([C@@H](NC(=O)c2cc(Cn3ccn(C4CC4)c3=N)cc(-c3cn(CC(C)C)nc3C(F)(F)F)c2)C2CC2)ccc1F`
Reply | 0.68

Ask | Item `Cc1cc(CNC(=O)c2cc(Cn3ccn(C)c3=N)cc(-c3ccc(F)cc3C(F)(F)F)n2)ccc1Cl` : provide Ki
Reply | 1.1

Ask | Dear colleague, please send me the reported Ki for `COc1ccnc(CNC(=O)c2cc(Cn3ccn(C)c3=N)cc(-c3ccc(F)cc3C)n2)c1` when you can.
Reply | 1.3

Ask | Please supply the value of reported Ki for the item `COc1cc(CNC(=O)c2cc(Cn3ccn(CC4CC4)c3=N)cc(-c3ccc(F)cc3C)c2)cc(OC)c1`
Reply | 38

---

# Test system: MV4:11 human cancer cell lines
# protocol_text: Anti-proliferative activity, CellTiter-Glo viability assay, 7 day protocol
# Assay type: cell-based
# condition: Homo sapiens, MV4-11, 168 h, MV4:11 cells, 7 day incubation, read-out: GI50 on cellular proliferation of MV4:11 human cancer cell lines
Consider the following molecules; for each one, report its GI50.
Record the value in µM, omitting the unit from your answer.

Ask | Check the records and state GI50 for Cc1ccnc(C(NC(=O)c2cc(Cn3ccn(C)c3=N)cc(-c3ccc(F)cc3C(F)(F)F)c2F)C2CC2)c1 (stereo not shown) [Example 105]
Reply | 0.4

Ask | Provide measured GI50 value, entry: Cc1ccnc(C(NC(=O)c2cc(Cn3ccn(C)c3=N)cc(-c3ncc(F)cc3C)c2)C2CC2)c1 (stereo not shown) [Example 69]
Reply | 5.1

Ask | Look up and report measured GI50 for this entry: CCn1cc(-c2cc(Cn3ccoc3=N)cc(C(=O)NCc3ccc(=O)n(C)c3)c2)c(C(F)(F)F)n1 [Example 292]
Reply | 0.71

Ask | Dear colleague, please send me the reported GI50 for Cc1cc([C@H](C)NC(=O)c2cc(Cn3ccoc3=N)cc(-c3ccc(F)cc3C)c2)ccc1F [Example 230] when you can.
Reply | 0.64

---

# experimental_target: WDR5 (Homo sapiens (Human))
# protocol_text: TR-FRET binding assay (displacement of 10mer-Thr-FAM probe from WDR5)
# condition: read-out: Ki for Inhibition of WDR5 by TR-FRET assay; TR-FRET, 10mer-Thr-FAM probe, WDR5-His tag 2 nM, pH 7.0
quantity: pKi
The read-out pKi is expressed as -log10 of concentration in moles per litre.

Ask | Give WDR5 (Homo sapiens (Human)) pKi for the following compound: `COc1cc(CNC(=O)c2cc(Cn3ccn(C)c3=N)cc(-c3c(C)cc(F)cc3F)c2)cc(OC)c1`
Reply | 9.72

Ask | Give pKi; test system WDR5 (Homo sapiens (Human)); compound `N=c1occn1Cc1cc(C(=O)N[C@H](c2ccc(Cl)c(Cl)c2)C2CC2)cc(-c2ccc(F)cc2OC(F)F)c1`
Reply | 9.74

Ask | # lookup: WDR5 (Homo sapiens (Human)) pKi, key = Cc1ccnc(C(NC(=O)c2cc(Cn3ccoc3=N)cc(-c3ncccc3C(F)(F)F)c2)C2CC2)c1 (stereo not shown)
Reply | 8.12

Ask | Look up and report measured pKi (WDR5 (Homo sapiens (Human))) for the following compound: `Cc1ccccc1-c1cc(Cn2ccn(C)c2=N)cc(C(=O)NCc2ccc(Cl)c(Cl)c2)c1`
Reply | 9.14

---

# experimental_target: UniProt P61964
# protocol_text: TR-FRET binding assay (displacement of 10mer-Thr-FAM probe from WDR5)
# condition: read-out: Ki for Inhibition of WDR5 by TR-FRET assay; TR-FRET, 10mer-Thr-FAM probe, WDR5-His tag 2 nM, pH 7.0
Task for the reader: assign each of the following molecules its reported Ki.

Ask | For the molecule `CCOc1c(C(=O)N[C@H](c2ccc(F)c(C)c2)C2CC2)cc(CN2CCOC2=N)cc1-c1cn(C)nc1C(F)(F)F` , give its measured Ki value.
Reply | < 0.1 nM

Ask | Read off the recorded Ki for `Cc1cc([C@@H](NC(=O)c2cc(Cn3ccn(C)c3=N)cc(-c3cn(C)nc3C(F)(F)F)c2)C2CC2)ncc1F`
Reply | < 0.1 nM

Ask | Answer with reported Ki of `Cc1ccnc([C@@H](NC(=O)c2cc(Cn3ccoc3=N)cc(-c3ccc(F)cc3C)c2)C2CC2)c1`
Reply | 0.14 nM

Ask | Consider the molecule `Cc1cc([C@@H](NC(=O)c2cc(Cn3ccoc3=N)cc(C3CC3)c2)C2CC2)ccc1F` . State its measured Ki.
Reply | 0.78 nM

Ask | Query Ki for `Cc1cc([C@@H](NC(=O)c2cc(Cn3ccn(C)c3=N)cc(C3CCC3)c2)C2CC2)ccc1F`
Reply | < 0.1 nM

Ask | Note down Ki recorded for `Cc1cc([C@@H](NC(=O)c2cc(Cn3ccn(C)c3=N)cc(C3(C(F)(F)F)CC3)c2)C2CC2)ncc1F`
Reply | < 0.1 nM

Ask | Identify Ki associated with the molecule `Cc1cc(C)nc(CNC(=O)c2cc(Cn3ccn(C)c3=N)cc(-c3cccnc3C)c2)n1`
Reply | 10 nM

Ask | Consider the molecule `Cc1cc([C@@H](NC(=O)c2cc(Cn3ccoc3=N)cc(-c3cn(C)nc3C(F)(F)F)c2)C2CC2)ncc1F` . State its measured Ki.
Reply | < 0.1 nM

Ask | Item COc1cc(OC)cc(C(NC(=O)c2cc(Cn3ccn(C)c3=N)cc(-c3ncnc4c3CCCC4)c2)C2CC2)c1 (stereo not shown) : provide Ki
Reply | 27 nM

Ask | Supply Ki value. Item: `Cc1cc([C@@H](NC(=O)c2cc(Cn3cnn(C)c3=N)cc(-c3cn(C)nc3C(F)(F)F)c2)C2CC2)ccc1F`
Reply | < 0.1 nM

Ask | Using known records, supply Ki for `Cc1cc([C@@H](NC(=O)c2cc(Cn3ccn(C4CC4)c3=N)cc(-c3cn(C(C)C)nc3C(F)(F)F)c2)C2CC2)ccc1F`
Reply | < 0.1 nM

Ask | Identify Ki associated with the molecule `CCn1cc(-c2cc(Cn3ccsc3=N)cc(C(=O)N[C@H](c3ccc(F)c(C)c3)C3CC3)c2)c(C(F)(F)F)n1`
Reply | < 0.1 nM

Ask | Identify measured Ki corresponding to COc1cc(OC)cc(C(NC(=O)c2cc(Cn3ccn(C)c3=N)cc(-c3ccnn3C(C)C)c2)C2CC2)c1 (stereo not shown)
Reply | 0.83 nM

Ask | For the molecule `COc1cc([C@@H](NC(=O)c2cc(Cn3ccsc3=N)cc(-c3cn(C)nc3C(F)(F)F)c2)C2CC2)ccc1F` , give its reported Ki.
Reply | < 0.1 nM

Ask | Give the reported Ki for this molecule. `COc1cc(CN(C)C(=O)c2cc(Cn3ccn(C)c3=N)cc(-c3c(C)ccc4[nH]ncc34)c2)cc(OC)c1`
Reply | 16 nM

Ask | # return recorded Ki for entry `Cc1cc([C@@H](NC(=O)c2cc(Cn3ccn(C4CC4)c3=N)cc(-c3ccc(F)cc3C(F)F)c2)C2CC2)ccc1F`
Reply | < 0.1 nM

Ask | Please look at this molecule and report its Ki: `CCn1ccn(Cc2cc(C(=O)NCc3cc(OC)cc(OC)c3)cc(-c3ccc(F)cc3C)c2)c1=N`
Reply | 0.4 nM

Ask | For the molecule `Cc1cc([C@@H](NC(=O)c2cc(CN3CCOC3=N)cc(-c3cn(C)nc3C(F)(F)F)n2)C2CC2)ccc1F` , report Ki.
Reply | 0.77 nM

Ask | Identify Ki associated with the molecule `N=C1OCCN1Cc1cc(C(=O)N[C@H](c2ccc(Cl)c(F)c2)C2CC2)cc(-c2ccc(F)cc2Cl)c1`
Reply | < 0.1 nM

Ask | Let me know recorded Ki for `CCn1cc(-c2cc(Cn3ccoc3=N)cc(C(=O)N[C@H](c3ccc(Cl)c(Cl)c3)C3CC3)c2)c(C(F)(F)F)n1` , thanks.
Reply | < 0.1 nM

Ask | For the molecule `Cn1cc(-c2cc(Cn3ccn(C4CC4)c3=N)cc(C(=O)N[C@H](c3ccc(Cl)c(Cl)c3)C3CC3)c2)c(C(F)(F)F)n1` , give its measured Ki value.
Reply | < 0.1 nM

Ask | # return recorded Ki for entry `CCn1cc(-c2cc(Cn3ccn(C4CC4)c3=N)cc(C(=O)N[C@H](c3ccc(F)c(C)c3)C3CC3)c2)c(C(F)(F)F)n1`
Reply | < 0.1 nM

Ask | Consider the molecule `Cc1cc(CNC(=O)c2cc(Cn3ccn(C)c3=N)cc(-c3c(C)ccc4[nH]ncc34)c2)ccc1Cl` and give its recorded Ki.
Reply | 0.99 nM

Ask | Hello, please tell me recorded Ki for this one: `C[C@H](NC(=O)c1cc(Cn2ccoc2=N)cc(-c2cccnc2C(F)(F)F)c1)c1ncc(F)cn1`
Reply | > 33 nM

Ask | Hello, please tell me recorded Ki for this one: `Cc1cc(F)ccc1-c1cc(Cn2ccn(C)c2=N)cc(C(=O)N[C@H](C)c2ccc(F)c(C(F)(F)F)c2)n1`
Reply | 1 nM

Ask | Given `COc1cc(CNC(=O)c2cc(Cn3ccn(C)c3=N)cc(-c3c[nH]c(=O)cc3C)c2)cc(OC)c1` , respond with its Ki.
Reply | 13 nM

Ask | Give me measured Ki, please, for this molecule: `Cc1cc([C@@H](NC(=O)c2cc(Cn3ccn(C)c3=N)cc(-c3cccnc3C(F)(F)F)c2F)C2CC2)ccc1F`
Reply | < 0.1 nM

Ask | Using known records, supply Ki for `Cc1cc([C@@H](NC(=O)c2cc(Cn3cc(F)ccc3=N)cc(-c3cccnc3C(F)(F)F)c2)C2CC2)ccc1F`
Reply | < 0.1 nM
